Test name: Stability of the compound in rat plasma after 24 hrs by HPLC method relative to zero time concentration
Assay type: ADME, cell-free
Settings: read-out: Stability
Value kind: remaining at 24 h (%)
Field format: number, assumed %, no unit text.

Tell me the measured remaining at 24 h of `CC(C)=CCC/C(C)=C/CC/C(C)=C/CC[C@]1(C)CCc2c(C)c(OC(=O)/C=C\C(=O)O)c(C)c(C)c2O1` , please.
43

* * *

Test name: Chemical stability of the compound in phosphate buffer at pH 7.4 after 24 hrs by HPLC method relative to zero time concentration
Type: physicochemical
Settings: phosphate buffer, pH 7.4; read-out: Stability
Value kind: remaining at 24 h (%)
Express your answer in %, writing the number without its unit.

Need remaining at 24 h, item `CC(C)=CCC/C(C)=C/CC/C(C)=C/CC[C@]1(C)CCc2c(C)c(OC(=O)/C=C\C(=O)O)c(C)c(C)c2O1`
100

* * *

Test name: Stability of the compound in rat plasma after 4 hrs by HPLC method relative to zero time concentration
Assay type: ADME, cell-free
Settings: read-out: Stability
Value kind: remaining at 4 h (%)
Note: unit % is implicit; provide only the numeric part.

# query: remaining at 4 h of entry `CC(C)=CCC/C(C)=C/CC/C(C)=C/CC[C@]1(C)CCc2c(C)c(OC(=O)/C=C\C(=O)O)c(C)c(C)c2O1`
81
